Reference source: paper PMC8523698

Assay: Cytotoxicity in MRC-5 cells
Settings: human, MRC-5 cells
endpoint: CC50 at 5 days

> print(dat)
                                   compound  reported.measurement
1  COc1cccc2[nH]c(C(=O)N[C@@H](CC(C)C)C(=O)N[C@@H](C[C@@H]3CCNC3=O)C(=O)COP(=O)(O)O)cc12 [PF-07304814]              > 100 µM

###

Biological target: CYP2C9 (Homo sapiens, UniProt P11712)
Sequence (P11712 whole entry): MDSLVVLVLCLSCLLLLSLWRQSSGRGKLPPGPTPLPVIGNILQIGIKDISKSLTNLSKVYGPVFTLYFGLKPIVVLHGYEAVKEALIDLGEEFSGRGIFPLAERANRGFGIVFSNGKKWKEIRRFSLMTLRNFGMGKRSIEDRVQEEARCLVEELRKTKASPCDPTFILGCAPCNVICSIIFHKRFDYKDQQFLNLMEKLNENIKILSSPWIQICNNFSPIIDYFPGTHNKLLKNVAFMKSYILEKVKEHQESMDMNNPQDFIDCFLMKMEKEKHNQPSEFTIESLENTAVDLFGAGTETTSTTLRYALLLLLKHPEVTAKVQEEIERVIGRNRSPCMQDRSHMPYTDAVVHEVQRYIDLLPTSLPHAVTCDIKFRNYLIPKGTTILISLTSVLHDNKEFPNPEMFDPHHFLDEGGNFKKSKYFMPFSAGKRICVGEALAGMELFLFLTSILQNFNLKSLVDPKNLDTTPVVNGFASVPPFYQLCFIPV
Experiment: Reversible CYP inhibition in human liver microsomes
pIC50: −log10 of the molar value.
endpoint: pIC50

> print(dat)
                               input.smiles  reported.measurement
1  COc1cccc2[nH]c(C(=O)N[C@@H](CC(C)C)C(=O)N[C@@H](C[C@@H]3CCNC3=O)C(=O)COP(=O)(O)O)cc12                < 4.00
